System: Staphylococcus epidermis
Assay: Antimicrobial assay: growth inhibition in 96-well plates, O.D.620 at six hours
Format: cell-based
Details: concentration at which the reported % inhibition (greater than 80%) was found, 100% at next higher concentration if below 100%
No end group written: not given here.
Observable: Effective Growth Inhibition Conc., S. epidermis (µg/mL)

>  <Substance>
GIGKFLHSAKKFGKAFVGIMNS-NH2 [M2A-E^19]

>  <Target under test>
Staphylococcus epidermis

>  <Unit abbreviation>
µg/mL

>  <Result value>
10

$$$$
>  <Substance>
GIGKFLHSAKKFGKFVGEIMNS-NH2 [M2A-A^15]

>  <Target under test>
Staphylococcus epidermis

>  <Unit abbreviation>
µg/mL

>  <Result value>
25

$$$$
>  <Substance>
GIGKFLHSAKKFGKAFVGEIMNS-NH2 [Peptide M2A, reference compound]

>  <Target under test>
Staphylococcus epidermis

>  <Unit abbreviation>
µg/mL

>  <Result value>
25

$$$$
>  <Substance>
GIGKFLHSAKKFGKAFVEIMNS-NH2 [M2A-G^18]

>  <Target under test>
Staphylococcus epidermis

>  <Unit abbreviation>
µg/mL

>  <Result value>
10

$$$$
>  <Substance>
GIGKFLHSAKKFGKAFVGEIMS-NH2 [M2A-N^22]

>  <Target under test>
Staphylococcus epidermis

>  <Unit abbreviation>
µg/mL

>  <Result value>
75

$$$$
>  <Substance>
GIGKFLHSAKKFGKAFVGEINS-NH2 [M2A-M^21]

>  <Target under test>
Staphylococcus epidermis

>  <Unit abbreviation>
µg/mL

>  <Result value>
75

$$$$

----------
Tested on: human red blood cells
Settings: pH 7
No end group written: not given here.

>  <Substance>
GIGKFHSAKKFGKAFVGEIMNS-NH2 [M2A-L^6]

>  <Target under test>
human red blood cells

>  <% Hemolysis of Human Red Blood Cells (%)>
1

$$$$
>  <Substance>
GIGKFLHSAKKFGKAFVGEIMS-NH2 [M2A-N^22]

>  <Target under test>
human red blood cells

>  <% Hemolysis of Human Red Blood Cells (%)>
2

$$$$
>  <Substance>
GIGKFLSAKKFGKAFVGEIMNS-NH2 [M2A-H^7]

>  <Target under test>
human red blood cells

>  <% Hemolysis of Human Red Blood Cells (%)>
0

$$$$
>  <Substance>
GIGKFLHSAGKFGKAFGEIMKS [M1C-V^17]

>  <Target under test>
human red blood cells

>  <% Hemolysis of Human Red Blood Cells (%)>
1

$$$$
>  <Substance>
GIGKFLHSAGKFGKAFVGIMKS [M1C-E^19]

>  <Target under test>
human red blood cells

>  <% Hemolysis of Human Red Blood Cells (%)>
1

$$$$
>  <Substance>
GIGKFLHSAGKFGKAFVGEIMKS [Peptide M1C, Magainin I, reference compound]

>  <Target under test>
human red blood cells

>  <% Hemolysis of Human Red Blood Cells (%)>
2

$$$$

----------
System: human red blood cells
Settings: pH 7
No end group written: not given here.
Quick list: % Hemolysis of Human Red Blood Cells per entry.
Observable: % Hemolysis of Human Red Blood Cells (%)

>  <Substance>
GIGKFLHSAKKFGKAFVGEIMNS-NH2 [Peptide M2A, reference compound]

>  <Observable>
% Hemolysis of Human Red Blood Cells

>  <Result value>
4

$$$$
>  <Substance>
GIGKFLHSAKKFGKAVGEIMNS-NH2 [M2A-F^16]

>  <Observable>
% Hemolysis of Human Red Blood Cells

>  <Result value>
1

$$$$
>  <Substance>
GIGKFLHSAKKFGKAFVGEMNS-NH2 [M2A-I^20]

>  <Observable>
% Hemolysis of Human Red Blood Cells

>  <Result value>
0

$$$$
>  <Substance>
GIGKFLHSAKKFGKAFVGEINS-NH2 [M2A-M^21]

>  <Observable>
% Hemolysis of Human Red Blood Cells

>  <Result value>
0

$$$$
>  <Substance>
GIGKFLHSAGKFGKAFVGEIMK [M1C-S^23]

>  <Observable>
% Hemolysis of Human Red Blood Cells

>  <Result value>
0

$$$$
>  <Substance>
GIGKFLHSAGKFGKAFVGEMKS [M1C-I^20]

>  <Observable>
% Hemolysis of Human Red Blood Cells

>  <Result value>
1

$$$$
>  <Substance>
GIGKFLSAGKFGKAFVGEIMKS [M1C-H^7]

>  <Observable>
% Hemolysis of Human Red Blood Cells

>  <Result value>
0

$$$$
>  <Substance>
GIGKFHSAGKFGKAFVGEIMKS [M1C-L^6]

>  <Observable>
% Hemolysis of Human Red Blood Cells

>  <Result value>
0

$$$$
>  <Substance>
GIGKFLHSAGKFGKAFVGEIKS [M1C-M^21]

>  <Observable>
% Hemolysis of Human Red Blood Cells

>  <Result value>
1

$$$$
>  <Substance>
GIGKFLHSAKKFGKAFVGIMNS-NH2 [M2A-E^19]

>  <Observable>
% Hemolysis of Human Red Blood Cells

>  <Result value>
0

$$$$
>  <Substance>
GIGKFLHSAKKFGKAFGEIMNS-NH2 [M2A-V^17]

>  <Observable>
% Hemolysis of Human Red Blood Cells

>  <Result value>
0

$$$$
